Tested on: Rattus norvegicus
assay: Reversal of 2,27-dioxa-11,18,36,43-tetraza-8,21,33,46-tetrazoniaundecacyclo[46.2.2.23,6.213,16.223,26.228,31.238,41.18,11.118,21.133,36.143,46]hexahexaconta-1(50),3,5,8(64),9,13(63),14,16(62),19,21(61),23,25,28,30,33(56),34,38,40,44,46(53),48,51,54,57,59,65-hexacosaene tetrachloride induced neuromuscular block in Sprague-Dawley rat assessed as recovery time at 10 mg/kg, iv
Assay type: functional
Answer each item with its documented Time.
Express it in s; write the number only.

INPUT: # query: Time | item `Cc1c(C)c(OCCCC(=O)[O-])c2c(c1OCCCC(=O)[O-])CN1C(=O)N3CN4C(=O)N5CN6C(=O)N7CN8C(=O)N9Cc%10c(c(OCCCC(=O)[O-])c(C)c(C)c%10OCCCC(=O)[O-])CN%10C(=O)N(CN%11C(=O)N(CN%12C(=O)N(CN%13C(=O)N(C2)[C@]1(C)[C@]%133C)[C@@H]4[C@@H]5%12)[C@@H]6[C@@H]7%11)[C@]8(C)[C@]%109C.[Na+].[Na+].[Na+].[Na+]` | system: Rattus norvegicus
OUTPUT: 16

INPUT: Rattus norvegicus / Time / `C[C@]12N3Cc4c(c(OCCCC(=O)[O-])c5ccccc5c4OCCCC(=O)[O-])CN1C(=O)N1CN4C(=O)N5CN6C(=O)N7CN8C(=O)N9Cc%10c(c(OCCCC(=O)[O-])c%11ccccc%11c%10OCCCC(=O)[O-])CN%10C(=O)N(CN%11C(=O)N(CN%12C(=O)N(CN(C3=O)[C@]12C)[C@@H]4[C@H]%125)[C@@H]6[C@H]%117)[C@]8(C)[C@@]9%10C.[Na+].[Na+].[Na+].[Na+]` : value?
OUTPUT: 16

INPUT: Request: Time, test system Rattus norvegicus, entry `C[C@]12N3Cc4c(c(OCCCS(=O)(=O)[O-])c5ccccc5c4OCCCS(=O)(=O)[O-])CN1C(=O)N1CN4C(=O)N5CN6C(=O)N7CN8C(=O)N9Cc%10c(c(OCCCS(=O)(=O)[O-])c%11ccccc%11c%10OCCCS(=O)(=O)[O-])CN%10C(=O)N(CN%11C(=O)N(CN%12C(=O)N(CN(C3=O)[C@]12C)[C@@H]4[C@H]%125)[C@@H]6[C@H]%117)[C@]8(C)[C@@]9%10C.[Na+].[Na+].[Na+].[Na+]`
OUTPUT: 18

INPUT: Find the measured Time: item `C[C@]12N3Cc4c(OCCCC(=O)[O-])ccc(OCCCC(=O)[O-])c4CN1C(=O)N1CN4C(=O)N5CN6C(=O)N7CN8C(=O)N9Cc%10c(OCCCC(=O)[O-])ccc(OCCCC(=O)[O-])c%10CN%10C(=O)N(CN%11C(=O)N(CN%12C(=O)N(CN(C3=O)[C@]12C)[C@@H]4[C@H]%125)[C@@H]6[C@H]%117)[C@]8(C)[C@@]9%10C.[Na+].[Na+].[Na+].[Na+]` , target or system Rattus norvegicus.
OUTPUT: 18
